Target: Ecdysone receptor (Bombyx mori, UniProt P49881)
Sequence (P49881 whole entry): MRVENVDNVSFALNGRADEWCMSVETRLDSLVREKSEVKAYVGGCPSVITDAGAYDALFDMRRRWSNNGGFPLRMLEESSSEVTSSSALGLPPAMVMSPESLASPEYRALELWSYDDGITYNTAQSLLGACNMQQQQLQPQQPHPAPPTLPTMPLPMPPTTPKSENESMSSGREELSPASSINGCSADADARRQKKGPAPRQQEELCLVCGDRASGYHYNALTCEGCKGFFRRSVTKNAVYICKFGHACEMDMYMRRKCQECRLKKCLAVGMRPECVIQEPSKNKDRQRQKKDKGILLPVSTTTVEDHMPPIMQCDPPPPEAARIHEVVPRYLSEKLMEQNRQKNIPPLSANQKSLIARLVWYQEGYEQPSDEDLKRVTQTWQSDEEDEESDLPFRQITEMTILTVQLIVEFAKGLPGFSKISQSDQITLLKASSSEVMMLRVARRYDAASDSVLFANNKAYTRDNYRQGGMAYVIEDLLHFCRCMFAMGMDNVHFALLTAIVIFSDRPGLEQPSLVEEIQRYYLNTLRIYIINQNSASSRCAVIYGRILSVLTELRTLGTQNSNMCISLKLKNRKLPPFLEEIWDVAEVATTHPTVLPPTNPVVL
Assay: Agonist activity at ecdysone receptor in Bombyx mori Bm5 cells after 24 hr by luciferase reporter gene assay
Format: cell-based
Conditions: read-out: pEC50 (converted)
Kindly supply the reported EC50 values for the records listed here.
Write it as a number; the unit µM goes unstated.

Prompt: Dear colleague, I am looking for the recorded EC50 of the following molecule: CCc1ccc(C(=O)NN(C(=O)c2ccccc2)C(C)(C)C)cc1
Completion: 0.0174

Prompt: Report EC50 for CCCCCc1ccc(C(=O)NN(C(=O)c2cc(C)cc(C)c2Cl)C(C)(C)C)cc1 please.
Completion: 1.78

Prompt: Could you tell me which EC50 is on file for Cc1cc(C)cc(C(=O)N(NC(=O)c2ccccc2)C(C)(C)C)c1 ?
Completion: 0.2

Prompt: What does the record list as EC50 for Cc1ccccc1C(=O)NN(C(=O)c1ccccc1Cl)C(C)(C)C ?
Completion: 0.129

Prompt: I have this molecule here, Cc1cc(C)c(Cl)c(C(=O)N(NC(=O)c2ccc(Cl)cc2)C(C)(C)C)c1 , and I need its recorded EC50.
Completion: 0.447

Prompt: Would you kindly share the measured EC50 for CCOc1ccccc1C(=O)N(NC(=O)c1ccc(CC)cc1)C(C)(C)C ?
Completion: 2.88

Prompt: Returns the measured EC50 for the input molecule. Input: Cc1ccc(C(=O)NN(C(=O)c2cc(C)cc(C)c2Cl)C(C)(C)C)cc1
Completion: 0.302

Prompt: Any idea what EC50 was measured for Cc1cc(C)cc(C(=O)N(NC(=O)c2ccc(C(C)(C)C)cc2)C(C)(C)C)c1 ?
Completion: 0.00708

###

target: Ecdysone receptor (Bombyx mori); assay: Agonist activity at ecdysone receptor in Bombyx mori Bm5 cells after 24 hr by luciferase reporter gene assay relative to tebufenozide; assay type: cell-based
Provide the recorded Efficacy for the entries that follow.
Kindly answer with a numeric value in %, unit omitted.

Prompt: Identify the measured Efficacy of Cc1cc(C)c(Cl)c(C(=O)N(NC(=O)c2ccccc2)C(C)(C)C)c1 for Ecdysone receptor (Bombyx mori).
Completion: 92

Prompt: Checklist item: Efficacy tested on Ecdysone receptor (Bombyx mori), entry CCOc1ccccc1C(=O)N(NC(=O)c1ccc(CC)cc1)C(C)(C)C , value?
Completion: 92

Prompt: Lab note: need Efficacy with Ecdysone receptor (Bombyx mori) for entry CCCCCc1ccc(C(=O)NN(C(=O)c2cc(C)cc(C)c2Cl)C(C)(C)C)cc1 , please look it up.
Completion: 45

Prompt: API: value(readout= Efficacy, system= Ecdysone receptor (Bombyx mori), query= CCc1ccc(C(=O)NN(C(=O)c2ccccc2)C(C)(C)C)cc1 )
Completion: 84

Prompt: API: value(readout= Efficacy, system= Ecdysone receptor (Bombyx mori), query= Cc1cc(C)c(Cl)c(C(=O)N(NC(=O)c2ccc3c(c2C)CCCO3)C(C)(C)C)c1 )
Completion: 95

Prompt: Observed Efficacy on Ecdysone receptor (Bombyx mori) for CCOc1ccccc1C(=O)N(NC(=O)c1ccc(Cl)cc1)C(C)(C)C , please.
Completion: 74

Prompt: Request body: readout Efficacy, system Ecdysone receptor (Bombyx mori), query CCc1ccc(C(=O)NC2(C(=O)c3cc(C)cc(C)c3)CCCCC2)cc1 . Return the value.
Completion: 112

Prompt: Any idea what Efficacy came out for CC(C)c1ccc(C(=O)NN(C(=O)c2ccccc2Cl)C(C)(C)C)cc1 on Ecdysone receptor (Bombyx mori)?
Completion: 116

Prompt: Recorded Efficacy for Cc1cc(C)cc(C(=O)C2(NC(=O)C(F)(F)F)CCCCC2)c1 with Ecdysone receptor (Bombyx mori), please?
Completion: 6

Prompt: Look up Efficacy with Ecdysone receptor (Bombyx mori) for this molecule: CCOc1ccccc1C(=O)N(NC(=O)c1ccc(OC)cc1)C(C)(C)C
Completion: 59

Prompt: // lookup Efficacy | system=Ecdysone receptor (Bombyx mori) | key= CC(C)(C)N(NC(=O)c1ccc(Cl)cc1)C(=O)c1ccccc1 [HALOFENOZIDE]
Completion: 95

Prompt: API: value(readout=Efficacy, system=Ecdysone receptor (Bombyx mori)) for record CC(C)(C)N(NC(=O)c1ccccc1)C(=O)c1ccc(Cl)c(Cl)c1Cl
Completion: 79

Prompt: Fill in the recorded Efficacy for this molecule, with Ecdysone receptor (Bombyx mori) as test system: Cc1cc(C)cc(C(=O)C2(NC(=O)c3ccc4c(c3C)CCCO4)CCCCC2)c1
Completion: 102
